# Lookup of reported glycan array binding signal (z-score) keyed by entry
Biological target: Gal3S(b1-4)[Fuc(a1-3)]Glc6S
Assay: glycan array binding signal (z-score within array); higher = stronger binding
Settings: glycan notation: IUPAC condensed, linker removed
About 410 targets per protein were measured; listed, in parts, are those with the strongest signals and a random draw of the rest.
Answer with the value's number alone.

>  <binder>
FGFR2-Fc (protein) MVNVTDAISSGDDEDDTDGAEDFVSENSNNKRAPYWTNTEKMEKRLHAVPAANTVKFRCPAGGNPMPTMRWLKNGKEFKQEHRIGGYKVRNQHWSLIMESVVPSDKGNYTCVVENEYGSINHTYHLDVVERSPHRPILQAGLPANASTVVGGDVEFVCKVYSDAQPHIQWIKHVEKNGSKYGPDGLPYLKVLKHSGINSSNAEVLALFNVTEADAGEYICKVSNYIGQANQSAWLTVLPKQQAPGREKEITASPDYLETRPLEQKLISEEDLAANDILDYKDDDDKV

>  <reported-measurement>
1.35

$$$$

# input for lookup
Qu. Any idea what its glycan array binding signal (z-score) is? The binder is Tamarinin (protein) CDDSARAGNIVVYWGQGGSDNSEGSLKEACKSGHYNMIVLQQLIVYDDGRDPDLNLGAHCSDCTKLEEQIKYCQNKDIKILLQIGQVVPTQEDVKDVTKNLSEYLLKNFFSGKSGPLGEVYLNGIDIASVPEGNNLKFDELVEALNDSSTERRIYLSASPLCVYPDYYLNKAIQTEKLDFLFVQFFYQNPCIYTEGNPENLFEAMKTWTKNVPESMIFMALPATPNLDGYIPPRVLNKEILPAVSEASNFAGVMIFDRYFDRFRKYSSKIK
Ans. -0.238
